measurement target: Protein skinhead-1 (Caenorhabditis elegans, UniProt P34707)
Sequence (P34707 whole entry): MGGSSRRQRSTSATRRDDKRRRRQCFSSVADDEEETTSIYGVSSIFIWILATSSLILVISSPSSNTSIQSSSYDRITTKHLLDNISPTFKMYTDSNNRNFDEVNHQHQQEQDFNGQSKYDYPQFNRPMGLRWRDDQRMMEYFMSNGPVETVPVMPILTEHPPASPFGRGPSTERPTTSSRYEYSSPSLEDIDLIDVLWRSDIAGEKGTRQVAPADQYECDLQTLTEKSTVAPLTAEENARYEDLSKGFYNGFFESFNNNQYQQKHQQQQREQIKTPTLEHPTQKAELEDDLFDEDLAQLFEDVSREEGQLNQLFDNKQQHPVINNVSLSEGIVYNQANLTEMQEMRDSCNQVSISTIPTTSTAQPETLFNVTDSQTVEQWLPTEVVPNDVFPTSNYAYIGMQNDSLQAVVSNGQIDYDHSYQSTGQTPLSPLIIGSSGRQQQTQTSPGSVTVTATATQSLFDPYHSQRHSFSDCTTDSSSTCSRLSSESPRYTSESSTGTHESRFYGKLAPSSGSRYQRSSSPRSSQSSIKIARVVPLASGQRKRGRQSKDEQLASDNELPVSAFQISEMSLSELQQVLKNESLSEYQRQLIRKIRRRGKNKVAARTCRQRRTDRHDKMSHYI
Type: functional
Active and inactive are the calls of the source.
quantity: IC50

Solved cases below.
O=C(CCn1c(=O)c2ccccc2n(CC(=O)NCCC2=CCCCC2)c1=O)NCc1ccco1 :: > 100 µM (inactive)
C[C@@]12C(=O)N(Cc3ccc(-c4ccccc4)cc3)CC(=O)N1[C@H](/C=C/c1ccccc1)[C@@H]1C(=O)N(c3ccccc3)C(=O)[C@@H]12 :: > 100 µM (inactive)
Brc1ccc(-c2nnc(-c3ccccc3)o2)o1 :: > 100 µM (inactive)
O=c1cc(-c2ccccc2)oc2ccc3ccccc3c12 :: > 100 µM (inactive)
CC1(C)c2ccccc2C(=O)c2ccccc21 :: 24 µM (active)
O=C(Nc1ccc(Cl)cc1)NC1CCCCNC1=O (stereo not given) :: > 100 µM (inactive)
COc1ccccc1C1CC(c2cccc(NS(C)(=O)=O)c2)=NN1S(=O)(=O)c1ccccc1 (stereo not given) :: > 100 µM (inactive)
CC(=O)NCCn1c(C)cc2ccccc21 :: > 100 µM (inactive)

Any idea what IC50 was measured for "Fc1ccc(-c2nnc(-c3ccc4ccccc4c3)o2)cc1" ?
> 100 µM (inactive)

Similarly, "Clc1c(-c2ccccc2)nnn1-c1ccccc1" ?
> 100 µM (inactive)

====

measurement target: Cytochrome P450 3A4 (Homo sapiens);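 further: CYP3A4 tested as one member of a cytochrome P450 panel screen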
Sequence (P08684 whole entry): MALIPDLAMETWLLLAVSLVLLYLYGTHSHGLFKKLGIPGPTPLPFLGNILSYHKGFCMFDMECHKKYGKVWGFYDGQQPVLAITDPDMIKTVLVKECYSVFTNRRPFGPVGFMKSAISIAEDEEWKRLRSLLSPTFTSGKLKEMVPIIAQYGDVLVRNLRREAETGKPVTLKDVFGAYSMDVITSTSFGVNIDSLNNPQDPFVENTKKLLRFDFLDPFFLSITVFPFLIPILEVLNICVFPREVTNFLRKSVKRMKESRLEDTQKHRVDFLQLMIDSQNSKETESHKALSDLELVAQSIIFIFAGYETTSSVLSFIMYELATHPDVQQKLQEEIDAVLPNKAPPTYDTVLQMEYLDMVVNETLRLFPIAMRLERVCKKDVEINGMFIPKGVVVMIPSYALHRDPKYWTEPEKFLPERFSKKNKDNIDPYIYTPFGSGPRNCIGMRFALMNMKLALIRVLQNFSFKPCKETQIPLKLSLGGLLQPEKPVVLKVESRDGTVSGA
Entries and their measured AC50 follow.

Given Cc1ccc(CSc2nnc(-c3ccncc3)n2CC2CCCO2)cc1 (stereo not drawn) , state its recorded AC50.
1.41 µM (inconclusive)

Next compound: "C[C@H](C(=O)c1ccncc1)c1ccccn1"
3.98 µM (inconclusive)

Try "O=C1N/C(=C\c2ccc(N3CCOCC3)c(F)c2)C(=O)N1Cc1ccccc1" next.
0.794 µM (inconclusive)

Same question for "Cc1ccc(NC(=O)c2sc3ncnc(O)c3c2C)c(C)c1" please.
15.8 µM (inconclusive)

Try Cc1ccc(N2CC(C(=O)Nc3cc(C)on3)CC2=O)cc1 (stereo not drawn) next.
22.4 µM (inconclusive)

// next record "COC(=O)c1sccc1-c1ccc(C(=O)Nc2cccc(Cl)c2)o1"
28.2 µM (inconclusive)

Field entry: "CCOC(=O)CSc1n[nH]c(NC(=O)c2cccc(C)c2)n1"
5.62 µM (inconclusive)

Please do the same for "CC(C)C[C@H](NC(=O)N1CCCCCC1)C(=O)N[C@H](Cc1cn(C)c2ccccc12)C(=O)N[C@H](Cc1ccccn1)C(=O)O" as well.
15.8 µM (inconclusive)

====

measurement target: Paired box protein Pax-8 (Homo sapiens, UniProt Q06710)
Sequence (Q06710 whole entry): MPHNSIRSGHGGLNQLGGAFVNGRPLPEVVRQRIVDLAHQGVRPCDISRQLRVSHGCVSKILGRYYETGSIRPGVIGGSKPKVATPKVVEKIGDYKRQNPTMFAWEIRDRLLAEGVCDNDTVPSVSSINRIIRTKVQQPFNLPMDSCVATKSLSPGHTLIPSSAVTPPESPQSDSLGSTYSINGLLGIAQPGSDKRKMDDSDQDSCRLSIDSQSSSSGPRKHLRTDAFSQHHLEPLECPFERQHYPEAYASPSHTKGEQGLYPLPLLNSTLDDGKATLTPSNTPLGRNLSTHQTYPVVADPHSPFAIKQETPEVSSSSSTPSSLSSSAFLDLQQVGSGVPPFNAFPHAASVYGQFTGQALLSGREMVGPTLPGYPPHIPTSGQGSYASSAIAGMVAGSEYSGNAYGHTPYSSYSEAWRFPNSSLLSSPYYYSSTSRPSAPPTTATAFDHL
assay remarks: PAX8 transcriptional activity inhibition in RMG-I – RMG-I cells, luciferase, cherry-pick, dose response (AID 687027);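 further: luciferase reporter driven by Pax8 target thyroperoxidase promoter measured by SteadyGlo luminescence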
Assay type: functional, cell-based
The source made the active and inactive calls.
Each entry below lists one item and its recorded AC50 value.

Some molecules with recorded AC50:
CCC(C)(O)C(=O)OC1C(=O)OC2CC3C(C)=CC(=O)C(O)C3(C)C3C4(O)OCC23C1C(C)C4O (stereo not drawn) :: 0.426 µM (active)
C[C@@H]1CCCCO[C@@H](CN(C)C(=O)Nc2cccc3ccccc23)[C@H](C)CN([C@H](C)CO)C(=O)c2cc(NS(=O)(=O)c3ccc(F)cc3)ccc2O1 :: 5.4 µM (active)
Cn1cc(C2=C(c3ccc(Cl)cc3Cl)C(=O)NC2=O)c2ccccc21 :: 4.61 µM (active)
C[C@@H]1CN([C@H](C)CO)C(=O)Cc2cc(NC(=O)Nc3ccc(F)cc3)ccc2O[C@H]1CN(C)Cc1ccc(Cl)c(Cl)c1 :: 16.2 µM (active)
C[C@H](CO)N1C[C@H](C)[C@H](CN(C)Cc2ccc(Cl)c(Cl)c2)OCCCC[C@H](C)Oc2ccc(NS(=O)(=O)c3ccc(F)cc3)cc2C1=O :: 4.85 µM (active)
Cc1cccc(S(=O)(=O)N2CC[C@@H]3[C@H](CO)N(C)c4ccc(C#Cc5ccc(F)cc5)cc4[C@@H]32)c1 :: 8.27 µM (active)
COc1ccc(/C=C/C(=O)c2cc(F)ccc2OC(=O)c2ccccc2C)cc1OC :: 1.74 µM (active)

Turning to the following molecule.
Using the record for "O=C1c2ccccc2C(=O)c2[nH]c(O)nc21" , report its AC50.
5.72 µM (active)
